target: Tyrosine-protein kinase JAK2 (Homo sapiens, UniProt O60674); experiment: Inhibition of recombinant JAK2 using Poly (Glu,Ala,Tyr) as substrate after 2 hrs by luminescence assay
Sequence (O60674 whole entry): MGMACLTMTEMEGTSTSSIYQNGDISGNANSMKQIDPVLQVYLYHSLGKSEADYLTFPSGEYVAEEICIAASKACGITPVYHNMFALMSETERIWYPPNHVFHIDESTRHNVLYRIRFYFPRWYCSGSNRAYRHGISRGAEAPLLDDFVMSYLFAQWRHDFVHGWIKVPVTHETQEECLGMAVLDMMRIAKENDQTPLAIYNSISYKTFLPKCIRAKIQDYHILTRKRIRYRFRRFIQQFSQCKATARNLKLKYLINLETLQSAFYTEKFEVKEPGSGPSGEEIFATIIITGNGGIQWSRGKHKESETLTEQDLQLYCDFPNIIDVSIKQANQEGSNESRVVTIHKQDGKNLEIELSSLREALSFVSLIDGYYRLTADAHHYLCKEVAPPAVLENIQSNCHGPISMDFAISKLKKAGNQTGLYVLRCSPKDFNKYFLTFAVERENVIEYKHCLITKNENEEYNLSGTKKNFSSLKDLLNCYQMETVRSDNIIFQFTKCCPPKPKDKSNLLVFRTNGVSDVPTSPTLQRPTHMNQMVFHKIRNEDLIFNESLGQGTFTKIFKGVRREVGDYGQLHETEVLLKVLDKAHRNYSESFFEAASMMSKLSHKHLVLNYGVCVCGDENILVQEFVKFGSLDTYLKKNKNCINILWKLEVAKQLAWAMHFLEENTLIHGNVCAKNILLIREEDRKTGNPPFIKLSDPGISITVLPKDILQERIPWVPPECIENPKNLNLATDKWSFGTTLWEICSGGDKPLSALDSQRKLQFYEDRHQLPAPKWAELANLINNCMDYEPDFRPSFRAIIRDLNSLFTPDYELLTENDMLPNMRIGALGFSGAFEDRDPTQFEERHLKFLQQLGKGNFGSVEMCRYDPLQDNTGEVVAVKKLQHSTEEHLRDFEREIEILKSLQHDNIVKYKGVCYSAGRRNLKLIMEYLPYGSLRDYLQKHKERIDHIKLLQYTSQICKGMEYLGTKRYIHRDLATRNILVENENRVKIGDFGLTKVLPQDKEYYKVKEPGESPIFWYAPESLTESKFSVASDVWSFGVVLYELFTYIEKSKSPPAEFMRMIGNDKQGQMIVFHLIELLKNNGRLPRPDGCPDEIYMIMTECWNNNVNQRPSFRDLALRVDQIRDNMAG
So basically: is IC50 under 20 nM? Then 1. Not under? Then -1.

Reference set, count: 3
1. Fc1cnc2nc1-c1cccc(c1)COCC=CCOCc1cc(ccc1OCCN1CCCC1)N2 (mixture of isomers) = 1
2. CCN(CC)CCOc1ccc2cc1COCC=CCOCc1cccc(c1)-c1ccnc(n1)N2 (mixture of isomers) = -1
3. COc1ccc2cc1COCC=CCOCc1cccc(c1)-c1ccnc(n1)N2 (mixture of isomers) = -1

Below 20 nM on IC50? Entry `COc1ccc2cc1-c1ccnc(n1)Nc1ccc(OCCN3CCCC3)c(c1)COCC=CCOC2`
-1

Below 20 nM on IC50? Entry COc1ccc2cc1COCC=CCOCc1cc(ccc1OCCN1CCCC1)Nc1nccc-2n1 (mixture of isomers)
1

Below 20 nM on IC50? Entry COc1ccc2cc1COCC=CCCOc1cccc(c1)-c1ccnc(n1)N2 (mixture of isomers)
-1

Below 20 nM on IC50? Entry CCS(=O)(=O)N1CCN(c2ccc3cc2COCC=CCOCc2cccc(c2)-c2ccnc(n2)N3)CC1 (mixture of isomers)
-1

Below 20 nM on IC50? Entry O=C1CCN(CCOc2ccc3cc2COCC=CCOCc2cccc(c2)-c2ccnc(n2)N3)C1 (mixture of isomers)
-1

###

biological target: Tyrosine-protein kinase JAK2 (Homo sapiens, UniProt O60674); experiment: Inhibition of recombinant JAK2 using Poly (Glu,Ala,Tyr) as substrate after 2 hrs by luminescence assay
Classify on IC50 using class A (below 40 nM), class B (40 nM to below 80 nM), class C (80 nM or more)

Reference set, count: 4
1. C1=CCOCc2cccc(c2)-c2ccnc(n2)Nc2cc(cc(OCCN3CCCC3)c2)COC1 (mixture of isomers) = class B
2. Fc1cc2cc(c1)-c1ccnc(n1)Nc1ccc(OCCN3CCCC3)c(c1)COCC=CCOC2 (mixture of isomers) = class A
3. C1=CCOCc2cc(ccc2OCCN2CCCCC2)Nc2nccc(n2)-c2cccc(c2)COC1 (mixture of isomers) = class A
4. CC(=O)N1CCN(c2ccc3cc2COCC=CCOCc2cccc(c2)-c2ccnc(n2)N3)CC1 (mixture of isomers) = class C

Which category fits this record: Oc1ccc2cc1COCC=CCOCc1cccc(c1)-c1ccnc(n1)N2 (mixture of isomers)
class B

Which category fits this record: `C1=CCCOc2cccc(c2)-c2ccnc(n2)Nc2cccc(c2)OCC1`
class C

Which category fits this record: C1=CCOCc2cc(ccc2N2CCNCC2)Nc2nccc(n2)-c2cccc(c2)COC1 (mixture of isomers)
class C

Which category fits this record: COc1ccc2cc1COCC=CCOc1cccc(c1)-c1ccnc(n1)N2 (mixture of isomers)
class C

Which category fits this record: C1=CCOCc2cc(ccc2N2CCOCC2)Nc2nccc(n2)-c2cccc(c2)COC1 (mixture of isomers)
class B

Which category fits this record: CN(C)CCN(C)c1ccc2cc1COCC=CCOCc1cccc(c1)-c1ccnc(n1)N2 (mixture of isomers)
class B

Which category fits this record: ClCCOc1ccc2cc1COCC=CCOCc1cccc(c1)-c1ccnc(n1)N2 (mixture of isomers)
class C

Which category fits this record: COc1cc2cc(c1OCCN1CCCC1)COCC=CCOCc1cccc(c1)-c1ccnc(n1)N2 (mixture of isomers)
class A

Which category fits this record: O=C1CCCN1CCOc1ccc2cc1COCC=CCOCc1cccc(c1)-c1ccnc(n1)N2 (mixture of isomers)
class A

Which category fits this record: `OCCN1CCN(c2ccc3cc2COCC=CCOCc2cccc(c2)-c2ccnc(n2)N3)CC1`
class C

Which category fits this record: Fc1ccc2cc1COCC=CCOCc1cc(ccc1OCCN1CCCC1)Nc1nccc-2n1 (mixture of isomers)
class A

###

assay: Cmax in BALB/c mouse at 30 mg/kg, po administered as single dose; assay type: ADME, organism-based; set-up: dose 30 mg/kg, route oral; conditions: in vivo
RESULT_TYPE: Cmax (ng/mL)
Write the number in ng/mL without appending the unit.

Indicate the recorded Cmax value for this compound: C1=N/C2=N/c3ccc(OCCN4CCCC4)c(c3)COC/C=C/COCc3cccc(c3)C(=C1)N2 (mixture of isomers) [PACRITINIB]
292

###

assay: Plasma protein binding in human at 1000 ng/ml by equilibrium dialysis assay; format: ADME, cell-free; conditions: read-out: PPB (converted)
RESULT_TYPE: fraction unbound at 1000 ng/ml
Respond numerically, and do not add a unit to the figure.

Indicate the recorded fraction unbound at 1000 ng/ml value for this molecule: C1=N/C2=N/c3ccc(OCCN4CCCC4)c(c3)COC/C=C/COCc3cccc(c3)C(=C1)N2 (mixture of isomers)
0.0012

###

assay: AUC ( 0 to 8 hrs) in Beagle dog at 3 mg/kg, po administered via gelatin capsule as single dose; assay type: ADME, organism-based, Canis lupus familiaris; parameters: time < 8 hr, dose 3 mg/kg, route oral; conditions: plasma
RESULT_TYPE: AUC(0-t) at 8 h (ng·h/mL)
Write the number in ng·h/mL without appending the unit.

Indicate the recorded AUC(0-t) at 8 h value for this compound: C1=N/C2=N/c3ccc(OCCN4CCCC4)c(c3)COC/C=C/COCc3cccc(c3)C(=C1)N2 (mixture of isomers)
53

###

test: AUC (0 to 8 hrs) in Wistar rat at 10 mg/kg, po administered as single dose; assay type: ADME, organism-based; parameters: time < 8 hr, dose 10 mg/kg, route oral; conditions: plasma
RESULT_TYPE: AUC(0-t) at 8 h (ng·h/mL)
Write the number in ng·h/mL without appending the unit.

Indicate the recorded AUC(0-t) at 8 h value for this compound: C1=N/C2=N/c3ccc(OCCN4CCCC4)c(c3)COC/C=C/COCc3cccc(c3)C(=C1)N2 (mixture of isomers)
599

###

Consider compounds characterized by their IC50 with Cytochrome P450 2D6 (Homo sapiens, UniProt P10635).
Sequence (P10635 whole entry): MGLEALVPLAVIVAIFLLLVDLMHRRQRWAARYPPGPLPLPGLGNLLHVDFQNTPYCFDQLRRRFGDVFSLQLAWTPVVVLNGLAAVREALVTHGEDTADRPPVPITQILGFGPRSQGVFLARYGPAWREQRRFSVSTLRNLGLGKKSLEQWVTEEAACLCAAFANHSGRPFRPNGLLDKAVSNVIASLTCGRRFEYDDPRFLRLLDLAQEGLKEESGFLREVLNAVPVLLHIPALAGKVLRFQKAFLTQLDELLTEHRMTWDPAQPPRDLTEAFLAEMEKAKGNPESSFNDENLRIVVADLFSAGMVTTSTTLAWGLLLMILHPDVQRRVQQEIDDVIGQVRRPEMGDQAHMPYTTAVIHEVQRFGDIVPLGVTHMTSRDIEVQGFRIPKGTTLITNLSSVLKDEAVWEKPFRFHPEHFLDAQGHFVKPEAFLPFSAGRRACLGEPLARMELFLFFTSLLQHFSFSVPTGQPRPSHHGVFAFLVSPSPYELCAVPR

1. COc1ccc2cc1COCC=CCOCc1cc(ccc1OCCN1CCCC1)Nc1nccc-2n1 (mixture of isomers) = > 10 µM

Quote Cytochrome P450 2D6 (Homo sapiens, UniProt P10635) IC50 for entry C1=CCOCc2cc(ccc2OCCN2CCCCC2)Nc2nccc(n2)-c2cccc(c2)COC1 (mixture of isomers) .
> 10 µM

###

assay: physchem; conditions: phosphate buffer saline, pH 7
Description: Solubility of the compound in phosphate buffer saline at pH 7
RESULT_TYPE: solubility

1. COc1cc2cc(c1OCCN1CCCC1)COCC=CCOCc1cccc(c1)-c1ccnc(n1)N2 (mixture of isomers) = 154 µg/mL
2. OCCN1CCN(c2ccc3cc2COCC=CCOCc2cccc(c2)-c2ccnc(n2)N3)CC1 = 150 µg/mL

Indicate the recorded solubility value for this compound: C1=CCOCc2cc(ccc2N2CCNCC2)Nc2nccc(n2)-c2cccc(c2)COC1 (mixture of isomers)
8.79 µg/mL

Indicate the recorded solubility value for this compound: COc1ccc2cc1COCC=CCOc1cccc(c1)-c1ccnc(n1)N2 (mixture of isomers)
< 10 µg/mL

###

Known pIC50 of a selection of compounds
target: UniProt P29597; assay: Inhibition of recombinant TYK2
Sequence (P29597 whole entry): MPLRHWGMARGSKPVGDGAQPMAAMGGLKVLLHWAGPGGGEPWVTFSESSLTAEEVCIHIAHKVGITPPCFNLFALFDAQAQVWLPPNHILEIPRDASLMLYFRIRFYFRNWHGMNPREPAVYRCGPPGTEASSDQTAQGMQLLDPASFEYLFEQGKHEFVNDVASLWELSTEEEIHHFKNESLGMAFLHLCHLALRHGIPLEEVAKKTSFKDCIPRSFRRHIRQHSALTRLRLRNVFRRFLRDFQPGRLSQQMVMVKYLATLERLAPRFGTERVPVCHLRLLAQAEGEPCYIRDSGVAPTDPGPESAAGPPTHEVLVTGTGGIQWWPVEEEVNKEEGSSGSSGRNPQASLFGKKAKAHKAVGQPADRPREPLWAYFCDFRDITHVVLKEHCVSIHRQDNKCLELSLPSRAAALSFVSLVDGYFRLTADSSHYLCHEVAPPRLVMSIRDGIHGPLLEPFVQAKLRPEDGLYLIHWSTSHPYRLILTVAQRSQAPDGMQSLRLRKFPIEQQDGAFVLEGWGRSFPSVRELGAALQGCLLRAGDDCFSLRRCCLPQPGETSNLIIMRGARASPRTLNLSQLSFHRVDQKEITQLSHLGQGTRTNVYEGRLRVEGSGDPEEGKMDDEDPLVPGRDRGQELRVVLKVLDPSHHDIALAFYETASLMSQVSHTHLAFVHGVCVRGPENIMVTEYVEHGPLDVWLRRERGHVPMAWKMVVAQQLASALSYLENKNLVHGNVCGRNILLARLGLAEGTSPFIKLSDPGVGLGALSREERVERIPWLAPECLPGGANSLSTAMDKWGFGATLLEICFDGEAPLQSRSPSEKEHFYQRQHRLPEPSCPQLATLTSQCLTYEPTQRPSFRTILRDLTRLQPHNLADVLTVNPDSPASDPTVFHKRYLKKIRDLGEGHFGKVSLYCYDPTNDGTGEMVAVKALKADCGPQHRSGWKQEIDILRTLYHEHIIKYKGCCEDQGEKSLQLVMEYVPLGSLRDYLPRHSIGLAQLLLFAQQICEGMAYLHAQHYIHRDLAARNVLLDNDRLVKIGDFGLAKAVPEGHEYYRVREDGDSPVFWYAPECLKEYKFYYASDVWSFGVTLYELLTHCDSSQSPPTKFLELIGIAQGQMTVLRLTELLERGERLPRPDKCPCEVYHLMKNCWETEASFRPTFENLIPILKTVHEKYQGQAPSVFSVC
In plain terms, pIC50 is the concentration in mol/L turned into minus its base-10 logarithm.

Previously resolved entries follow.
1) OCCN1CCN(c2ccc3cc2COCC=CCOCc2cccc(c2)-c2ccnc(n2)N3)CC1 = 6.80
2) O=C1CCN(CCOc2ccc3cc2COCC=CCOCc2cccc(c2)-c2ccnc(n2)N3)C1 (mixture of isomers) = 6.85
3) C1=CCOCc2cc(ccc2N2CCOCC2)Nc2nccc(n2)-c2cccc(c2)COC1 (mixture of isomers) = 6.80

Now for another entry.
Indicate the recorded pIC50 value for this compound: CC(=O)N1CCN(c2ccc3cc2COCC=CCOCc2cccc(c2)-c2ccnc(n2)N3)CC1 (mixture of isomers)
6.96

###

experiment: Half life in dog liver microsomes at 5 uM by LC/MS/MS analysis; type: ADME, Canis lupus familiaris, Microsome
RESULT_TYPE: half-life at 5 µM (min)
Write the number in min without appending the unit.

Indicate the recorded half-life at 5 µM value for this compound: C1=N/C2=N/c3ccc(OCCN4CCCC4)c(c3)COC/C=C/COCc3cccc(c3)C(=C1)N2 (mixture of isomers) [PACRITINIB]
41

###

target: UniProtKB P08684; test: Inhibition of CYP3A4 in human liver microsomes assessed as decrease in formation of 1-hydroxymidazolam from midazolam substrate at 5 uM after 5 mins by LC-MS/MS; assay type: ADME, Microsome; details: probe midazolam
Sequence (P08684 whole entry): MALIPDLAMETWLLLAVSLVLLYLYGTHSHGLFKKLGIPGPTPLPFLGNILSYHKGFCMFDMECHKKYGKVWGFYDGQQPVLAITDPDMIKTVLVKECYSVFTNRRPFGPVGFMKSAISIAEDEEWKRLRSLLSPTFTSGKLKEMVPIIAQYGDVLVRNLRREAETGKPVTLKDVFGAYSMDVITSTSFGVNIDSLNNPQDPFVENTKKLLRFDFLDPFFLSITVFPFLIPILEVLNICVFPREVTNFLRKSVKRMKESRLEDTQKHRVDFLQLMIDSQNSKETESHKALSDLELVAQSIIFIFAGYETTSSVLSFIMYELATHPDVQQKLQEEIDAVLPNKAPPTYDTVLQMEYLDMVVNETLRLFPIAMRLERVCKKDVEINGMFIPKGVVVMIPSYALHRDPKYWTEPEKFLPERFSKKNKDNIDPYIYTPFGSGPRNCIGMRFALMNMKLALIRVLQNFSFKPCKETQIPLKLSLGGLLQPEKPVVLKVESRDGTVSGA
RESULT_TYPE: inhibition at 5 min, 5 µM (%)
Write the number in % without appending the unit.

Indicate the recorded inhibition at 5 min, 5 µM value for this compound: C1=N/C2=N/c3ccc(OCCN4CCCC4)c(c3)COC/C=C/COCc3cccc(c3)C(=C1)N2 (mixture of isomers)
20

###

assay: Half life in rat liver microsomes at 5 uM by LC/MS/MS analysis; format: ADME, Microsome
RESULT_TYPE: half-life at 5 µM (min)
Write the number in min without appending the unit.

Indicate the recorded half-life at 5 µM value for this compound: C1=N/C2=N/c3ccc(OCCN4CCCC4)c(c3)COC/C=C/COCc3cccc(c3)C(=C1)N2 (mixture of isomers)
18
